biological target: Ba/F3 FGFR3-BAIAP2L1 (Homo sapiens, UniProt P22607); construct: BAIAP2L1 (fusion partner, Q9UHR4 if human); host or cells: Ba/F3; the other entry of the earlier key: BAIAP2L1 (Q9UHR4, BAR/IMD domain-containing adapter protein 2-like 1); experiment: Ba/F3 cell viability assay (CellTiter-Glo 2.0); assay type: cell-based; details: Ba/F3 cell data, FGFR3-BAIAP2L1 fusion, 48 hours
Kd overview

Worked set:
molecule="C=CC(=O)N1CC(C(=O)N2CCC(n3nnc(-c4cc(O[C@H](CO)c5ccccn5)c5c(C#N)cnn5c4)c3C)CC2)C1 (single isomer, unassigned)" experimental_endpoint=Kd result="250 to 1000 nM"
molecule=C=CC(=O)N1CCC2(CC1)CC(n1ncc(-c3cc(O[C@H](CO)c4ccccn4)c4c(C#N)cnn4c3)c1C)C2 experimental_endpoint=Kd result="0.1 to 100 nM"
molecule=C=CC(=O)N1CCC2(CC1)CC(n1ncc(-c3cc(O[C@@H](CO)c4ccccn4)c4c(Cl)cnn4c3)c1C)C2 experimental_endpoint=Kd result="250 to 1000 nM"
molecule=C=CC(=O)N1CCC2(CC1)CC(n1nnc(-c3cc(O[C@H](C)c4ccccn4)c4c(C#N)cnn4c3)c1C)C2 experimental_endpoint=Kd result="0.1 to 100 nM"
molecule=C=CC(=O)N1CCC2(CC1)CC(n1ncc(-c3cc(O[C@@H](CO)c4ccc(F)cn4)c4c(C#N)cnn4c3)c1C)C2 experimental_endpoint=Kd result="250 to 1000 nM"

Now for the molecule whose Kd we want.
Task item: So what does the record say about Kd for C=CC(=O)N1CCC2(CC1)CC(n1ncc(-c3cc(OC(CO)c4ccn(C)n4)c4c(C#N)cnn4c3)c1C)C2 (stereo not drawn) ?
Reply: 0.1 to 100 nM

====

Kd overview
target: FGFR4 (Homo sapiens); construct: made in house; host or cells: E. coli (BL21-derived) infected with T7 phage; experiment: Kinase binding assay (Kd), kinase-tagged T7 phage, affinity beads, qPCR; conditions: in vitro binding assay, 11-point 3-fold dilution series
Sequence (P22455 22-802): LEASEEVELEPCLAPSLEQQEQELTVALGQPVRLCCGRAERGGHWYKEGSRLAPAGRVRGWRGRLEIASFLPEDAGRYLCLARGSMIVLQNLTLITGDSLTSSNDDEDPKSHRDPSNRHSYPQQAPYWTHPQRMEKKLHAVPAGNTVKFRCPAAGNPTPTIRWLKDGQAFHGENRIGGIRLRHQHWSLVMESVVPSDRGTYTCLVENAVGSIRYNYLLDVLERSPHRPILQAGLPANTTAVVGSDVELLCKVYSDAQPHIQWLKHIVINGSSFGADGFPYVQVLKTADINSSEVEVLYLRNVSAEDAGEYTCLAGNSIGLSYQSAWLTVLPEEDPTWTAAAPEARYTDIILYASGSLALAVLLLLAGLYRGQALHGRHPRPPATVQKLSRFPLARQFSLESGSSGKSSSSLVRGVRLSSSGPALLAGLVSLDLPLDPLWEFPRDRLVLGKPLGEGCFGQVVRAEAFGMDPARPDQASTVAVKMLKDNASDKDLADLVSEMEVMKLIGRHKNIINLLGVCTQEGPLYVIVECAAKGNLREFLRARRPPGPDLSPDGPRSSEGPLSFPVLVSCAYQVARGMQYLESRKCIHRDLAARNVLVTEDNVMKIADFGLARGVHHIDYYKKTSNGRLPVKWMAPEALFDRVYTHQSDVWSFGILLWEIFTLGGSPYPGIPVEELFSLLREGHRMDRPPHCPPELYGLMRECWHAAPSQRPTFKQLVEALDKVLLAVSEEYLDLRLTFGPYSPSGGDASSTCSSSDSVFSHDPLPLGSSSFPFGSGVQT

compound="C=CC(=O)N1CCC2(CC1)CC(n1ncc(-c3cc(O[C@@H](CO)c4ccccn4)c4c(C#N)cnn4c3)c1C)C2 [Example 7]" result="250 to 1000 nM"
compound="C=CC(=O)N1CC(C(=O)N2CCC(n3nnc(-c4cc(O[C@@H](CO)c5ccccn5)c5c(C#N)cnn5c4)c3C)CC2)C1 [Example 17]" result="≥ 1000 nM"

Now for the compound whose Kd we want.
Task item: So what does the record say about Kd for C=CC(=O)N1CCC(n2ncc(-c3cc(O[C@@H](CO)c4ccc(F)cn4)c4c(C#N)cnn4c3)c2C)CC1 [Example 2] ?
Reply: ≥ 1000 nM

====

Kd overview
molecular target: FGFR3 (Homo sapiens, UniProt P22607); construct: made in house; host or cells: E. coli (BL21-derived) infected with T7 phage; assay: Kinase binding assay (Kd), kinase-tagged T7 phage, affinity beads, qPCR; settings: in vitro binding assay, 11-point 3-fold dilution series
Sequence (P22607 23-806): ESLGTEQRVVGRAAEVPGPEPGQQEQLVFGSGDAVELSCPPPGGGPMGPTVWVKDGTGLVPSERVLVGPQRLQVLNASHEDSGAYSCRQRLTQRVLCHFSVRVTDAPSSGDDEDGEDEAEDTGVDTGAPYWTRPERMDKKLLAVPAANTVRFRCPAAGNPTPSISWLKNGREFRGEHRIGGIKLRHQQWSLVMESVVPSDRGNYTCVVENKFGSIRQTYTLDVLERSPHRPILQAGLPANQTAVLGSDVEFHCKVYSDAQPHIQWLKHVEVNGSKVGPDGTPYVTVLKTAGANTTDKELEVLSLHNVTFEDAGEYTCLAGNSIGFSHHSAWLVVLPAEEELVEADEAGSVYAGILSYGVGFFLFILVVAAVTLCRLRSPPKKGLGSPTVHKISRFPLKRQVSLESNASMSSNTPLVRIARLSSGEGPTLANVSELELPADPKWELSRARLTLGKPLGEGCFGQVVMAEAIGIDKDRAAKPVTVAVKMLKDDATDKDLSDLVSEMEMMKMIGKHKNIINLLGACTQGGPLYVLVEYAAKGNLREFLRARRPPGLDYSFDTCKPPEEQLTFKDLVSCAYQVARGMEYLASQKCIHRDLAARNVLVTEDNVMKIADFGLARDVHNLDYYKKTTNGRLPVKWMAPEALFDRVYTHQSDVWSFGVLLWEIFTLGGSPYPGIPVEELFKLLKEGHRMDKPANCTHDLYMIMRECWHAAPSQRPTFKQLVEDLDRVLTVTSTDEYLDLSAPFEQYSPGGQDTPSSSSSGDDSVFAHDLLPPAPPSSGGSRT

Worked set:
molecule="C=CC(=O)N1CC(C(=O)N2CCC(n3nnc(-c4cc(O[C@H](CO)c5ccccn5)c5c(C#N)cnn5c4)c3C)CC2)C1 (single isomer, unassigned) [Example 18]" result="0.1 to 100 nM"
molecule="C=CC(=O)N1CC(OC)(C(=O)N2CCC(n3nnc(-c4cc(O[C@@H](CO)c5ccccn5)c5c(C#N)cnn5c4)c3C)CC2)C1 [Example 21]" result="100 to 250 nM"
molecule="C=CC(=O)N1CCC2(CC1)CC(n1nnc(-c3cc(O[C@H](C)c4ccccn4)c4c(Cl)cnn4c3)c1C)C2 [Example 4]" result="0.1 to 100 nM"

Now for the molecule whose Kd we want.
Task item: Lab note: need Kd with FGFR3 (Homo sapiens, UniProt P22607) for entry C=CC(=O)N1CCC2(CC1)CC(n1ncc(-c3cc(O[C@@H](CO)c4ccccn4)c4c(Cl)cnn4c3)c1C)C2 [Example 5] , please look it up.
Reply: 250 to 1000 nM

Origin of values: patent US20260209223A1
